target: PI3Kalpha (Homo sapiens (Human), UniProt P42336)
Sequence (P42336 whole entry, looked up): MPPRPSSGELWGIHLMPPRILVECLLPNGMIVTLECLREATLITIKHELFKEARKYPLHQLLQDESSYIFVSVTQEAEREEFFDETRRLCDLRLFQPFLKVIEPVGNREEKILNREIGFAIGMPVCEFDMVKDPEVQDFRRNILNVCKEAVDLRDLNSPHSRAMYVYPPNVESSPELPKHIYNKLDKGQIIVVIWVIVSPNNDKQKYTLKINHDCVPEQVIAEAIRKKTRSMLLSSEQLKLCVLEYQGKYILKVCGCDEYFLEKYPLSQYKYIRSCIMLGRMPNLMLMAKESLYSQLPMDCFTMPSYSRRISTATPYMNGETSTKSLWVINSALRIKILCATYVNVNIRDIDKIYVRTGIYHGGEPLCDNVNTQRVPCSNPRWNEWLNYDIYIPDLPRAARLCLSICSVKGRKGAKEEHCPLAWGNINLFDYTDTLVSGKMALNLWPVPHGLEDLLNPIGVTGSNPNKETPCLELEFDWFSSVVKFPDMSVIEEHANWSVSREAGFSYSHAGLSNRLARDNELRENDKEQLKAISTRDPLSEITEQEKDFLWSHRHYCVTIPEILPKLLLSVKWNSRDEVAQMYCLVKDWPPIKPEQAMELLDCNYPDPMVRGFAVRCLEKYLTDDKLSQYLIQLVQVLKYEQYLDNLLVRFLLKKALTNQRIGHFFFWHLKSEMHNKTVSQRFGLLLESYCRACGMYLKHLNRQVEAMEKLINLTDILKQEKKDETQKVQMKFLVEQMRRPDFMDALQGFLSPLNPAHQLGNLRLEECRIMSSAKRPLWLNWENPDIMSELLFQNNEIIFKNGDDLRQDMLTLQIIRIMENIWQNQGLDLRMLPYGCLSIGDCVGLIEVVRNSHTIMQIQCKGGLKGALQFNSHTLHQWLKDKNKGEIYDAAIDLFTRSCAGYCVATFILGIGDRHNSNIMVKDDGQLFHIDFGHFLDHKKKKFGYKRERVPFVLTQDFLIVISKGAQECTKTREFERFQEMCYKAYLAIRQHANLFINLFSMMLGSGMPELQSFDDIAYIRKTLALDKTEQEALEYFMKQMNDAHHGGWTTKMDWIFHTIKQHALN
pIC50: −log10 of the molar value.
reportedProperty: pIC50

[[record]]
compoundstructure = "CCc1ncnc(-c2ccc(C(=O)N3CCN(C(C)=O)CC3)c(F)c2)c1C#Cc1ccc(N)nc1C"
valueobserved = 6.84

[[record]]
compoundstructure = "CCc1ncnc(-c2ccc(C(=O)N3CCn4ccnc4C3)c(F)c2)c1C#Cc1ccc(N)nc1"
valueobserved = 7.22

[[record]]
compoundstructure = "CCc1ncnc(-c2ccc(C(=O)N3CCN(C)CC3)nc2)c1C#Cc1ccc(N)nc1"
valueobserved = 6.67

[[record]]
compoundstructure = "CCc1ncnc(-c2ccc(C(=O)N3CCOCC3)c(OC)c2)c1C#Cc1ccc(N)nc1"
valueobserved = 7.00


###

target: PI3Kalpha (Homo sapiens (Human), UniProt P42336)
pIC50: −log10 of the molar value.
reportedProperty: pIC50

[[record]]
molecule = "CCc1ncnc(-c2ccc(C(=O)N3CCN(c4ccncc4)CC3)c(C)c2)c1C#Cc1ccc(N)nc1 [Example E-131]"
targetdesc = "PI3Kalpha (Homo sapiens (Human), UniProt P42336)"
reportedproperty = "pIC50"
valueobserved = 6.80

[[record]]
molecule = "CCc1ncnc(-c2cc(F)c(C(=O)N3CCN(CC)CC3)c(Cl)c2)c1C#Cc1ccc(N)nc1 [Example E-235]"
targetdesc = "PI3Kalpha (Homo sapiens (Human), UniProt P42336)"
reportedproperty = "pIC50"
valueobserved = 6.75

[[record]]
molecule = "CCc1ncnc(-c2ccc(C(=O)N3CCC(C(C)(C)O)CC3)c(C)c2)c1C#Cc1ccc(N)nc1 [Example E-87]"
targetdesc = "PI3Kalpha (Homo sapiens (Human), UniProt P42336)"
reportedproperty = "pIC50"
valueobserved = 7.10

[[record]]
molecule = "CCc1ncnc(-c2ccc(C(=O)N(C)CCN3CCCC3=O)c(F)c2)c1C#Cc1ccc(N)nc1 [Example D-119]"
targetdesc = "PI3Kalpha (Homo sapiens (Human), UniProt P42336)"
reportedproperty = "pIC50"
valueobserved = 7.26

[[record]]
molecule = "CCc1ncnc(-c2ccc(C(=O)N3CCN(CCNS(C)(=O)=O)CC3)c(Cl)c2)c1C#Cc1ccc(N)nc1 [Example E-253]"
targetdesc = "PI3Kalpha (Homo sapiens (Human), UniProt P42336)"
reportedproperty = "pIC50"
valueobserved = 7.51

[[record]]
molecule = "CCc1ncnc(-c2ccc(C(=O)N3CCN(C4CCCC4O)CC3)c(F)c2)c1C#Cc1ccc(N)nc1 (stereo not shown) [Example E-294]"
targetdesc = "PI3Kalpha (Homo sapiens (Human), UniProt P42336)"
reportedproperty = "pIC50"
valueobserved = 6.86

[[record]]
molecule = "CCc1ncnc(-c2ccc(C(=O)N(C)C3CCOCC3)c(F)c2)c1C#Cc1ccc(N)nc1 [Example E-169]"
targetdesc = "PI3Kalpha (Homo sapiens (Human), UniProt P42336)"
reportedproperty = "pIC50"
valueobserved = 7.16


###

molecular target: PI3Kalpha (Homo sapiens (Human))
pIC50: −log10 of the molar value.
Each record here notes measured pIC50.
reportedProperty: pIC50

[[record]]
molecule = "CCc1ncnc(-c2ccc(C(=O)N3CCC(N(C)C)C3)c(F)c2)c1C#Cc1ccc(N)nc1 (stereo not drawn)"
targetdesc = "PI3Kalpha (Homo sapiens (Human))"
reportedproperty = "pIC50"
valueobserved = 6.64

[[record]]
molecule = "CCNc1ccc(C#Cc2c(CC)ncnc2-c2ccc(C(=O)N3CCC(N4CCOCC4)CC3)c(F)c2)cn1"
targetdesc = "PI3Kalpha (Homo sapiens (Human))"
reportedproperty = "pIC50"
valueobserved = 6.68

[[record]]
molecule = "CCc1ncnc(-c2ccc(C(=O)N3CCC4(CCN(C)C4)C3)c(Cl)c2)c1C#Cc1ccc(N)nc1 (stereo not drawn)"
targetdesc = "PI3Kalpha (Homo sapiens (Human))"
reportedproperty = "pIC50"
valueobserved = 6.29

[[record]]
molecule = "CCc1ncnc(-c2cc(Cl)c(C(=O)N3CCC(CO)CC3)c(Cl)c2)c1C#Cc1ccc(N)nc1"
targetdesc = "PI3Kalpha (Homo sapiens (Human))"
reportedproperty = "pIC50"
valueobserved = 7.31

[[record]]
molecule = "CCc1ncnc(-c2cc(Cl)c(C(=O)N3CCN(CCC#N)CC3)c(Cl)c2)c1C#Cc1ccc(N)nc1"
targetdesc = "PI3Kalpha (Homo sapiens (Human))"
reportedproperty = "pIC50"
valueobserved = 7.14

[[record]]
molecule = "CCc1ncnc(-c2ccc(C(=O)N(C)C)cc2)c1C#Cc1ccc(C)nc1"
targetdesc = "PI3Kalpha (Homo sapiens (Human))"
reportedproperty = "pIC50"
valueobserved = 6.86

[[record]]
molecule = "CCc1ncnc(-c2ccc(C(=O)N3CC4(CN(C)C4)C3)c(Cl)c2)c1C#Cc1ccc(N)nc1"
targetdesc = "PI3Kalpha (Homo sapiens (Human))"
reportedproperty = "pIC50"
valueobserved = 6.02

[[record]]
molecule = "CCc1ncnc(-c2ccc(C(=O)N3CC[C@@H](N(C)C)C3)c(F)c2)c1C#Cc1ccc(N)nc1"
targetdesc = "PI3Kalpha (Homo sapiens (Human))"
reportedproperty = "pIC50"
valueobserved = 6.57

[[record]]
molecule = "CCc1ncnc(-c2ccc(C(=O)N(C)CCOC)c(F)c2)c1C#Cc1ccc(N)nc1"
targetdesc = "PI3Kalpha (Homo sapiens (Human))"
reportedproperty = "pIC50"
valueobserved = 6.99

[[record]]
molecule = "Cc1ncnc(-c2ccc(C(=O)N3CCN4CCCCC4C3)cc2)c1C#Cc1ccc(N)nc1 (stereo not drawn)"
targetdesc = "PI3Kalpha (Homo sapiens (Human))"
reportedproperty = "pIC50"
valueobserved = 7.09

[[record]]
molecule = "CCc1ncnc(-c2ccc(C(=O)N3CCN4CCC[C@H]4C3)c(Cl)c2)c1C#Cc1ccc(N)nc1"
targetdesc = "PI3Kalpha (Homo sapiens (Human))"
reportedproperty = "pIC50"
valueobserved = 6.59

[[record]]
molecule = "CCc1ncnc(-c2ccc(C(=O)N3CCN(Cc4ccccc4)CC3)c(F)c2)c1C#Cc1ccc(N)nc1"
targetdesc = "PI3Kalpha (Homo sapiens (Human))"
reportedproperty = "pIC50"
valueobserved = 6.32

[[record]]
molecule = "CCc1ncnc(-c2ccc(C(=O)N3CC[C@H](N(C)C)C3)c(F)c2)c1C#Cc1ccc(N)nc1"
targetdesc = "PI3Kalpha (Homo sapiens (Human))"
reportedproperty = "pIC50"
valueobserved = 6.79

[[record]]
molecule = "CCc1ncnc(-c2ccc(C(=O)N3CCC(N4CCN(C)CC4)CC3)c(OC)c2)c1C#Cc1ccc(N)nc1"
targetdesc = "PI3Kalpha (Homo sapiens (Human))"
reportedproperty = "pIC50"
valueobserved = 7.01

[[record]]
molecule = "CCc1ncnc(-c2ccc(C(=O)NC3CCN(CCOC)CC3)c(F)c2)c1C#Cc1ccc(N)nc1"
targetdesc = "PI3Kalpha (Homo sapiens (Human))"
reportedproperty = "pIC50"
valueobserved = 6.87

[[record]]
molecule = "CCc1ncnc(-c2cc(F)c(C(=O)N3CCN4CCC[C@H]4C3)c(F)c2)c1C#Cc1ccc(NC)nc1"
targetdesc = "PI3Kalpha (Homo sapiens (Human))"
reportedproperty = "pIC50"
valueobserved = 6.24

[[record]]
molecule = "CCc1ncnc(-c2ccc(C(=O)N3CCN(CC(F)F)CC3)c(F)c2)c1C#Cc1ccc(N)nc1"
targetdesc = "PI3Kalpha (Homo sapiens (Human))"
reportedproperty = "pIC50"
valueobserved = 7.07

[[record]]
molecule = "CCc1ncnc(-c2ccc(C(=O)NC3CC(C)(C)N(C)C(C)(C)C3)c(F)c2)c1C#Cc1ccc(N)nc1"
targetdesc = "PI3Kalpha (Homo sapiens (Human))"
reportedproperty = "pIC50"
valueobserved = 6.38

[[record]]
molecule = "CCc1ncnc(-c2cc(F)c(C(=O)N3CCN(CC(C)(C)O)CC3)c(Cl)c2)c1C#Cc1ccc(N)nc1"
targetdesc = "PI3Kalpha (Homo sapiens (Human))"
reportedproperty = "pIC50"
valueobserved = 6.94

[[record]]
molecule = "CCNc1ccc(C#Cc2c(CC)ncnc2-c2ccc(C(=O)N3CCN(CCCS(C)(=O)=O)CC3)c(F)c2)cn1"
targetdesc = "PI3Kalpha (Homo sapiens (Human))"
reportedproperty = "pIC50"
valueobserved = 6.96

[[record]]
molecule = "CCc1ncnc(-c2ccc(C(=O)NC)c(Cl)c2)c1C#Cc1ccc(N)nc1"
targetdesc = "PI3Kalpha (Homo sapiens (Human))"
reportedproperty = "pIC50"
valueobserved = 7.15

[[record]]
molecule = "CCc1ncnc(-c2ccc(C(=O)NC3CCCN(C)C3)c(F)c2)c1C#Cc1ccc(N)nc1 (stereo not drawn)"
targetdesc = "PI3Kalpha (Homo sapiens (Human))"
reportedproperty = "pIC50"
valueobserved = 6.55

[[record]]
molecule = "CCc1ncnc(-c2cc(F)c(C(=O)N3CCC(N4CCOCC4)CC3)c(Cl)c2)c1C#Cc1ccc(N)nc1"
targetdesc = "PI3Kalpha (Homo sapiens (Human))"
reportedproperty = "pIC50"
valueobserved = 6.85

[[record]]
molecule = "CCc1ncnc(-c2ccc(C(=O)N3CC(O)CO3)cc2)c1C#Cc1ccc(N)nc1 (stereo not drawn)"
targetdesc = "PI3Kalpha (Homo sapiens (Human))"
reportedproperty = "pIC50"
valueobserved = 7.41

[[record]]
molecule = "CCc1ncnc(-c2cc(F)c(C(=O)NC)c(F)c2)c1C#Cc1ccc(N)nc1"
targetdesc = "PI3Kalpha (Homo sapiens (Human))"
reportedproperty = "pIC50"
valueobserved = 7.19

[[record]]
molecule = "CCc1ncnc(-c2cc(F)c(C(=O)N3CCC(CO)CC3)c(F)c2)c1C#Cc1ccc(NC)nc1"
targetdesc = "PI3Kalpha (Homo sapiens (Human))"
reportedproperty = "pIC50"
valueobserved = 6.53

[[record]]
molecule = "CCc1ncnc(-c2ccc(C(=O)N3CCN(c4ccccc4)CC3)c(C)c2)c1C#Cc1ccc(N)nc1"
targetdesc = "PI3Kalpha (Homo sapiens (Human))"
reportedproperty = "pIC50"
valueobserved = 6.83

[[record]]
molecule = "CCNc1ccc(C#Cc2c(CC)ncnc2-c2ccc(C(=O)N3CCn4c(C)cnc4C3)c(F)c2)cn1"
targetdesc = "PI3Kalpha (Homo sapiens (Human))"
reportedproperty = "pIC50"
valueobserved = 6.87

[[record]]
molecule = "CCc1ncnc(-c2ccc(C(=O)N3CCC4(CC3)OCCCO4)c(C)c2)c1C#Cc1ccc(N)nc1"
targetdesc = "PI3Kalpha (Homo sapiens (Human))"
reportedproperty = "pIC50"
valueobserved = 7.13

[[record]]
molecule = "CCc1ncnc(-c2ccc(C(=O)N3CCC(N4CCC(C)CC4)C3)c(OC)c2)c1C#Cc1ccc(N)nc1 (stereo not drawn)"
targetdesc = "PI3Kalpha (Homo sapiens (Human))"
reportedproperty = "pIC50"
valueobserved = 6.24

